Tested on: CAF#3 (primary prostate cancer-associated fibroblasts of myCAF-like type)
Test: drug sensitivity score (DSS2, normalised partial AUC of dose-response, 72 h CellTiter-Glo viability) (DSS (dimensionless)); higher = more sensitive (stronger growth inhibition / cytotoxicity); extreme values may be limits of the assay
Decision: drug sensitivity score >= 0.2 yields Y, all other cases yield N.

Consider the worked cases shown below.
{"columns": ["Compound", "Assigned label"],
 "data": [
  ["Nc1nc(F)nc2c1ncn2[C@@H]1O[C@H](CO)[C@@H](O)[C@@H]1O [Fludarabine] (tested concentration range 1-10000 nM)", "N"],
  ["CCN1CCN(c2ccc(Nc3cc(N(C)C(=O)Nc4c(Cl)c(OC)cc(OC)c4Cl)ncn3)cc2)CC1 [Infigratinib] (tested concentration range 0.1-1000 nM)", "N"],
  ["C[C@H]1O[C@@H](O[C@H]2[C@@H](O)C[C@H](O[C@H]3[C@@H](O)C[C@H](O[C@H]4CC[C@@]5(C)[C@H](CC[C@@H]6[C@@H]5C[C@@H](O)[C@]5(C)[C@@H](C7=CC(=O)OC7)CC[C@]65O)C4)O[C@@H]3C)O[C@@H]2C)C[C@H](O)[C@@H]1O [Digoxin] (tested concentration range 0.1-1000 nM)", "Y"],
  ["CN[C@@H](C)C(=O)N[C@H]1CN(C(=O)CC(C)C)CC[C@H]2CC[C@@H](C(=O)NC(c3ccccc3)c3ccccc3)N2C1=O [AT-406] (tested concentration range 1-10000 nM)", "N"],
  ["CC(C)c1cc(C(=O)N2Cc3ccc(CN4CCN(C)CC4)cc3C2)c(O)cc1O [Onalespib] (tested concentration range 0.2-2500 nM)", "Y"],
  ["Cn1cc(C[C@@H](N)C(=O)O)c2ccccc21 [Indoximod] (tested concentration range 0.5-5000 nM)", "N"],
  ["O=C(O)C1(C(=O)O)CCC1.[NH2-].[NH2-].[Pt+2] [Carboplatin] (tested concentration range 10-100000 nM)", "Y"],
  ["Cc1sc2c(c1C)C(c1ccc(Cl)cc1)=N[C@@H](CC(=O)Nc1ccc(O)cc1)c1nnc(C)n1-2 [Birabresib] (tested concentration range 1-10000 nM)", "Y"]
]}

IN: For this compound, is measured drug sensitivity score 0.2 or higher? O=C(/C=C\n1cnc(-c2cc(C(F)(F)F)cc(C(F)(F)F)c2)n1)NNc1cnccn1 [Selinexor] (tested concentration range 1-10000 nM)
OUT: Y

IN: For this compound, is measured drug sensitivity score 0.2 or higher? Cc1cn(-c2cc(NC(=O)c3ccc(C)c(Nc4nccc(-c5cnccn5)n4)c3)cc(C(F)(F)F)c2)cn1 [Radotinib] (tested concentration range 1-10000 nM)
OUT: N

# credit: the supplement of paper PMC12592484
